# target-or-test-system: D(3) dopamine receptor (Homo sapiens)
# experiment-notes: qHTS of D3 Dopamine Receptor Antagonist: qHTS
# condition-description: D3R cells, DiscoveRx beta-arrestin luminescence, antagonist mode
The whole screen tested about 360,000 compounds, of which about 9,100 (2.5%) were called active. Another 4% or so got no clear call; they are omitted. Rule as the data show it: active = max response below about -50%; inconclusive = no clear call, values can overlap the other calls; inactive = above that. The full list was thinned out, with actives kept by preference.
Please state which outcome applies, choosing from active, inactive

Some solved entries appear below for comparison.
| compound | assigned-label |
| --- | --- |
| CCCNC(=O)C1(C)CCN1C(=O)C1(c2ccccc2)CC1 (stereo unspecified) | inactive |
| O=C(CCc1ccc(O)cc1)NN=Cc1cc(Br)ccc1O | inactive |

Could you check what this test reported for CCCNC(=O)c1cc(C2CCCN(C(=O)c3ccc4c(c3)CCO4)C2)on1 (stereo unspecified) ?
inactive

Can you check COc1cc(-c2nnc(NC(=O)CS(=O)(=O)c3ccc(Cl)cc3)o2)cc(OC)c1OC next?
inactive

Also check O=C(NCc1cccs1)c1ccc(Br)o1
inactive

Here is the next compound: CC(CNC(=O)c1ccc(Br)o1)NC(=O)c1ccc(Br)o1 (stereo unspecified)
active

Next record, please: CC(CCc1ccccc1)NC(=O)c1ccc(Br)o1 (stereo unspecified)
inactive

Next compound: CCc1nc2ccc(C(=O)Nc3ccc(OC)c(OC)c3)cn2c1N(C)C(=O)c1cccc(OC)c1
inactive

Another: Cc1cc(C)n2c(NCc3ccccc3)c(CC(C)C)nc2n1
inactive

Please answer likewise for COc1cc(C(CCN2CCN(c3ccccc3)CC2)c2c(OC)cc(OC)c3ccc(=O)oc23)cc(OC)c1OC (stereo unspecified)
active

What about this compound? S=C(NN=Cc1ccccn1)Nc1ccccn1
inactive

FYI, the data here is from PubChem BioAssay AID652054.
